Biological target: HDAC10 (Homo sapiens, UniProt Q969S8)
Sequence (Q969S8 1-669): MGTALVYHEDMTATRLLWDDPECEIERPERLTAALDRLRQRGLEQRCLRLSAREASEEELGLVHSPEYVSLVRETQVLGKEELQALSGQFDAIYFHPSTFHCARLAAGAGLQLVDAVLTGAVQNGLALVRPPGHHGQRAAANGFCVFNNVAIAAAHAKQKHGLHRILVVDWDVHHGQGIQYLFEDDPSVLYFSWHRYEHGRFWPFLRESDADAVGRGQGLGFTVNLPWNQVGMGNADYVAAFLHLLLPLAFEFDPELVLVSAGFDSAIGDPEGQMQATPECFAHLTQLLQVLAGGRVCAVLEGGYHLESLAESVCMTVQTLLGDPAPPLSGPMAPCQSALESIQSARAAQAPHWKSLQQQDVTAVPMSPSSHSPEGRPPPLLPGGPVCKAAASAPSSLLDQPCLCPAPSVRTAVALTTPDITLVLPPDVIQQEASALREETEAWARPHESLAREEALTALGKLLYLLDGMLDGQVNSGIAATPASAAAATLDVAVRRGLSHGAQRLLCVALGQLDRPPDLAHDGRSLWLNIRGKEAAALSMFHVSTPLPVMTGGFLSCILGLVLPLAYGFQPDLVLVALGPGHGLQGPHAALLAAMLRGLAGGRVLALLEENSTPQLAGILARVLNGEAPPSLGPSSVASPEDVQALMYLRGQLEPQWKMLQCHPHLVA
Experiment: HDAC isoform inhibition, HDAC10
test_readout: pIC50
The read-out pIC50 is expressed as -log10 of concentration in moles per litre.

Given the entry `CC[C@H](C(=O)Nc1ncc(C(=O)NO)s1)c1ccc(OC)cc1` , report its measured pIC50.
8.69
